Test: Dog absorption test
Assay type: in vivo
Conditions: in vivo, po, 0.3 mg/kg, 0.3 mg/kg oral administration, average
measured attribute: half-life (h)

>>> reported("Cc1c(C(=O)O)sc2nc(Cc3ccc(Cl)c(Cl)c3)[nH]c(=O)c12 [Form I crystal]")
3.5

* * *

Assay: Dog absorption test
Assay type: in vivo
Conditions: in vivo, po, 0.3 mg/kg, 0.3 mg/kg oral administration, average, read-out: Tmax
measured attribute: Tmax (h)

>>> reported("Cc1c(C(=O)O)sc2nc(Cc3ccc(Cl)c(Cl)c3)[nH]c(=O)c12 [Form I crystal]")
3.06

* * *

Assay: Dog absorption test
Format: in vivo
Details: in vivo, po, 0.3 mg/kg, 0.3 mg/kg oral administration, average, read-out: MRT
measured attribute: MRT (h)

>>> reported("Cc1c(C(=O)O)sc2nc(Cc3ccc(Cl)c(Cl)c3)[nH]c(=O)c12 [Form I crystal]")
6.73

// provenance: patent US9006253B2
